Reference source for all entries: PubChem BioAssay (NCI)

- Test system: UO-31 renal
- assay.name: NCI tumour cell line growth inhibition, 48 h; in the data active means GI50 below about 0.43 µM; inactive means the rest
API: response.call in True for active, False for inactive

Here's what some known entries look like.
COC(=O)[C@]12CC[C@@H](C)[C@H](C)[C@@H]1C1=CC[C@@H]3[C@@]4(C)C[C@@H](OC(=O)/C=C/c5ccccc5)[C@H](O)[C@@](C)(CO)[C@@H]4[C@H](O)C[C@@]3(C)[C@]1(C)CC2	False
NC1CCCCC1N.O=C1C=C/C(=C(/c2ccc(O)c(Br)c2)c2ccccc2S(=O)(=O)[O-])C=C1Br.O=C1C=C/C(=C(/c2ccc(O)c(Br)c2)c2ccccc2S(=O)(=O)[O-])C=C1Br.[Pt+4]	False
COC1=C(C)C(=O)c2c(c(CCCl)c3n2CCC3OC(C)=O)C1=O (stereo not drawn)	True
O=C(O)c1cc(=O)cc(C(=O)O)o1	False
N#CC1=C(N)NC(=S)NC12Nc1ccccc1S2 (stereo not drawn)	False
NC(=S)N/N=C1\c2ccccc2-c2c(F)c(F)c(F)c(F)c21	False
Cc1cc(N2CCCCC2)nc(NC2CCCC(Nc3ccnc4cc(Cl)ccc34)C2)n1 (stereo not drawn)	False
COc1cccc(-c2cc(=O)c3cc(N4CCOCC4)ccc3[nH]2)c1	True

Identify the outcome logged in this assay for the molecule shown: Cn1cc(-c2nc(-c3c[nH]c4ncccc34)cs2)c2ccccc21 False
